Reference source for all entries: patent US9023821B2

# Tested on: human airway epithelial cells (HAECs)
# Test protocol: High-throughput sequencing (HTS) of miRNAs at four stages of differentiation of HAECs
# Experimental context: stage FC; Table VI
Threshold check on Level of intensity of expression in log2 measured by high-throughput sequencing, FC: at or above 9 log2 gives Y, strictly below gives N.

>>> assigned_label("hsa-miR-100: human miRNA, SEQ ID No. 1 (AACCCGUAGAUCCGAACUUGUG; expressed or natural sequence; listed as Homo sapiens)")
"N"
>>> assigned_label("hsa-miR-374a: human miRNA, SEQ ID No. 42 (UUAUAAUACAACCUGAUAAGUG; expressed or natural sequence; listed as Homo sapiens)")
"N"
>>> assigned_label("hsa-miR-92b: human miRNA, SEQ ID No. 49 (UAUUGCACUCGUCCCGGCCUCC; expressed or natural sequence; listed as Homo sapiens)")
"Y"
>>> assigned_label("hsa-miR-96: human miRNA, SEQ ID No. 51 (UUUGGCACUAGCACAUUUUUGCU; expressed or natural sequence; listed as Homo sapiens)")
"N"
>>> assigned_label("hsa-miR-27b: human miRNA, SEQ ID No. 30 (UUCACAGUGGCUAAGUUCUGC; expressed or natural sequence; listed as Homo sapiens)")
"N"

Inquiry: I'd appreciate it if you could say whether hsa-miR-22: human miRNA, SEQ ID No. 23 (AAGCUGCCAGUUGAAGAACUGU; expressed or natural sequence; listed as Homo sapiens) has Level of intensity of expression in log2 measured by high-throughput sequencing, FC at least equal to 9 log2.
Reply text: N

Inquiry: Textbook exercise: given the entry hsa-miR-29a: human miRNA, SEQ ID No. 31 (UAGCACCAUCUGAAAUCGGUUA; expressed or natural sequence; listed as Homo sapiens) , state whether its Level of intensity of expression in log2 measured by high-throughput sequencing, FC is greater than or equal to 9 log2.
Reply text: Y

Inquiry: I'd appreciate it if you could say whether hsa-miR-130a: human miRNA, SEQ ID No. 4 (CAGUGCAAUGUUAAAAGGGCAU; expressed or natural sequence; listed as Homo sapiens) has Level of intensity of expression in log2 measured by high-throughput sequencing, FC at least equal to 9 log2.
Reply text: Y

Inquiry: Is the recorded value of Level of intensity of expression in log2 measured by high-throughput sequencing, FC equal to or greater than 9 log2 for this substance? hsa-miR-181a: human miRNA, SEQ ID No. 12 (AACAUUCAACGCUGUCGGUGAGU; expressed or natural sequence; listed as Homo sapiens)
Reply text: N

Inquiry: Quick check: does hsa-miR-15a: human miRNA, SEQ ID No. 9 (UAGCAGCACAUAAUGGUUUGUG; expressed or natural sequence; listed as Homo sapiens) have Level of intensity of expression in log2 measured by high-throughput sequencing, FC greater than or equal to 9 log2?
Reply text: N

Inquiry: Is it the case that hsa-miR-574-3p: human miRNA, SEQ ID No. 48 (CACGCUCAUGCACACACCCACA; expressed or natural sequence; listed as Homo sapiens) has Level of intensity of expression in log2 measured by high-throughput sequencing, FC reaching or exceeding 9 log2?
Reply text: Y
